# assay_name: ATG_VDRE_CIS: Attagene CIS-FACTORIAL HepG2 Assay for human Vitamin D Receptor Element (VDRE) (AID 2282968)
# assay_setup: HepG2 VDRE cis-reporter transcription, actives raise or lower the signal
Activity calls are given as the source filed them. Rule for the calls: active = hit-call score of the fitted dose curve at least 0.9, where 1 is the maximum; inactive = score below 0.9.
parameter_measured: AC50

Study these solved cases before continuing.
compound="CCOP(=S)(NC(C)C)Oc1ccccc1C(=O)OC(C)C (stereo not given)" result="1.5 µM (active)"
compound=ClC(Cl)=C(c1ccc(Cl)cc1)c1ccccc1Cl result=inactive
compound=COCCOCCO result=inactive
compound=N#C/C=C/c1ccccc1 result=inactive
compound=c1nc[nH]n1 result=inactive

Given `CCNc1nc(Cl)nc(NC(C)(C)C)n1` , respond with its AC50.
inactive

Using the record for `Cn1[nH]nnc1=S` , state its measured AC50.
inactive

Specify measured AC50 for `CCN(CC)c1ccccc1` .
inactive

Hello, please tell me recorded AC50 for this one: `CCOP(=S)(OCC)SCSCC`
35.4 µM (active)

Tell me measured AC50 for OCC1CO1 (stereo not given) please.
inactive

---

# assay_name: Tanguay_ZF_120hpf_EDEM: Oregon State University Tanguay Lab 120 Hour Post-fertilization zebrafish Assay for Edema Malformation (AID 2284400)
Activity calls are given as the source filed them. How the source made its calls: active means hit-call score of the fitted dose curve at least 0.9, where 1 is the maximum; inactive means score below 0.9.
Return exactly one item of active, inactive

compound=O=C(O)C=CC(F)(C(F)(F)F)C(F)(F)F label_value=inactive

Given `OCC(F)(F)OC(F)(F)C(F)(F)OC(F)(F)C(F)(F)OC(F)(F)CO` , state the outcome it received in this test.
active

I'd appreciate the recorded outcome for `O=C(O)C(F)(F)C(F)(F)C(=O)O` from this test.
inactive

Assay result, entry COC(=O)C(F)(F)C(F)(F)OC(F)(C(F)(F)F)C(F)(F)OC(F)=C(F)F (configuration not stated) — outcome?
inactive

Field: outcome | Entry: FC(F)(F)C(F)(C(F)(F)F)C(F)(F)C(F)(F)CC1CO1 (configuration not stated)
inactive

Recorded test call requested for `O=C(O)C(F)(F)OC(F)(F)C(F)(F)OC(F)(F)C(=O)O`
inactive

Can you look up the reported call for `OCC(F)(F)OC(F)(F)C(F)(F)OC(F)(F)C(F)(F)OC(F)(F)F` for me?
inactive

---

# Read-out: Cytochrome P450 2C19 (Homo sapiens) (UniProt P33261)
# Sequence (P33261 whole entry, looked up): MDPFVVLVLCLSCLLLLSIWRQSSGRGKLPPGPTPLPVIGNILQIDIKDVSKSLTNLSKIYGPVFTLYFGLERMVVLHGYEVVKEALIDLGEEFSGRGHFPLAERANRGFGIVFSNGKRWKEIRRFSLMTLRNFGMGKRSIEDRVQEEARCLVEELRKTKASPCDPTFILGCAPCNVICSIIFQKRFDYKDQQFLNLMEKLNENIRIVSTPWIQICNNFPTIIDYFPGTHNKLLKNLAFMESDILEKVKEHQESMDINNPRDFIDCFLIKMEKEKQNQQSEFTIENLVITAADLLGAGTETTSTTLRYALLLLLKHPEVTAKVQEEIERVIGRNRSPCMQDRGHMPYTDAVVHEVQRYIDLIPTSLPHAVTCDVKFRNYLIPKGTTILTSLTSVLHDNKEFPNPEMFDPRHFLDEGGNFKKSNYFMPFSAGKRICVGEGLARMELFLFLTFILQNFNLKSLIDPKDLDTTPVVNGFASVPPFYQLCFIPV
# assay_name: LTEA_HepaRG_CYP2C19: Life Technologies and Expression Analysis (LTEA) Assay for CYP2C19 using HepaRG (AID 2283482)
# assay_setup: mRNA level, 48 h; actives raise or lower the signal
# Protocol: LTEA_HepaRG is a cell based, multiplexed-readout assay that uses HepaRG, a human liver cell line, with measurements taken at 48 hours after chemical dosing on a 96-well plate.LTEA_HepaRG_CYP2C19 is one of 102 assay component(s) measured in the LTEA HepaRG cell culture assay. It is a marker of NR mediated metabolism.Data from the assay component LTEA_HepaRG_CYP2C19 was analyzed into 1 endpoint. […]
Calls of active or inactive are those of the source. The calls were made as follows: active = hit-call score of the fitted dose curve at least 0.9, where 1 is the maximum; inactive = score below 0.9.
Lab note: assign the record to one of active, inactive

compound="CCOP(=S)(Oc1ccc([N+](=O)[O-])cc1)c1ccccc1 (configuration not stated)" label_value=active
compound=O=P(Oc1ccccc1)(Oc1ccccc1)Oc1ccccc1 label_value=active
compound=CCCN(CCC)c1c([N+](=O)[O-])cc(C(C)C)cc1[N+](=O)[O-] label_value=active
compound=CCOS(=O)(=O)OCC label_value=inactive
compound=CCCCc1ccccc1 label_value=inactive
compound=CC(C)(C)OOC(C)(C)C label_value=inactive

Kindly consider the entry below.
Which outcome did this test record for the compound CCC1(c2ccccc2)C(=O)N=C(O)NC1=O (configuration not stated) ?
active
